# Tested System: FAAH Rat brain (Rattus norvegicus, UniProt P97612)
# Construct: from tissue; host or cells: rat brain membranes
# Sequence (P97612 whole entry): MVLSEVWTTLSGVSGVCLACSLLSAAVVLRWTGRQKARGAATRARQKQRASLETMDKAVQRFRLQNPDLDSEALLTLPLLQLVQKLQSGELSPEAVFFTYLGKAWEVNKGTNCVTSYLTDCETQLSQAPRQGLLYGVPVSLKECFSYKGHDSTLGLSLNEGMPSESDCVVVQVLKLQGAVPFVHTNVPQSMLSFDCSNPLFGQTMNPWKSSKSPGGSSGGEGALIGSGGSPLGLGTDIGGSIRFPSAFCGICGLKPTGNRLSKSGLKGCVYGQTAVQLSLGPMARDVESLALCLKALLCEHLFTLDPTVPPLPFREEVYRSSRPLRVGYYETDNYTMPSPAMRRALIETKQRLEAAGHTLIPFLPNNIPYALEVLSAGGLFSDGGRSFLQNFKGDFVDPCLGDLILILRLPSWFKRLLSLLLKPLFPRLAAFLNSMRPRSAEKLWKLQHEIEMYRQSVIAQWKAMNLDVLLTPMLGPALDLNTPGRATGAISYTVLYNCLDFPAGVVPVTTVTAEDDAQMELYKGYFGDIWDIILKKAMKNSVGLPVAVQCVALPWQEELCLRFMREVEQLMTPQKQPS
# Method Summary: FAAH inhibitory activity, rat brain membranes, [14C]-AEA hydrolysis
# Format: biochemical
# Applied Conditions: Table 2; rat brain; read-out: FAAH Rat brain IC50
Reported Endpoint: IC50 (nM)

Record excerpt, results attached:
COc1ccc(CCC(=O)NS(=O)(=O)CCCF)c(CN2CCC[C@H]2c2nc(C(=O)NCCCCC3CCCCC3)co2)c1 [Example 12h] :: 100
COc1ccc(CCC(=O)NS(=O)(=O)N(C)C)c(CN2CCC[C@H]2c2nc(C(=O)NCCCCC3CCCCC3)co2)c1 [Example 12k] :: 200
COc1ccc(CCC(=O)NS(=O)(=O)c2ccc(Cl)s2)c(CN2CCC[C@H]2c2nc(C(=O)NCCCCC3CCCCC3)co2)c1 [Example 12j] :: 210

(a) COc1ccc(CCC(=O)NS(=O)(=O)C(C)C)c(CN2CCC[C@H]2c2nc(C(=O)NCCCCC3CCCCC3)co2)c1 [Example 12i]
(b) CCS(=O)(=O)NC(=O)CCc1ccc(OC)cc1CN1CCC[C@H]1c1nc(C(=O)NCCCCC2CCCCC2)co1 [Example 12l]
Could you determine which record has the numerically smaller IC50? Candidates: a and b Pick one and reply with its label.
a
